- Tested on: Plasmodium falciparum Sir2 (PF13_0152, Sir2A)
- experiment_description: pfSir2 binders on small-molecule microarrays, primary screen, biochemical, small-molecule microarray, 635 nm fluorescence (AID 1098);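 also: score merges spot fluorescence intensity with its signal-to-noise ratio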
- experimental_conditions: small-molecule microarray binding, fluorescence 635 nm; higher = more signal
Returns one of fulfilled or not fulfilled; fulfilled when composite z-score is >= 1.

Please review the entries below; each comes with its answer.
1. COc1ccc(C(=O)Nc2cccc(CN3C(=O)[C@]4(O[C@H](CC(=O)N(CCO)Cc5ccccc5)[C@@H]([Si](C)(C)c5ccc(OC)cc5)[C@@H]4C)c4ccccc43)c2)cc1
fulfilled
2. COc1cc(Cc2cc3c(c(-c4ccccc4)n2)[Si](C(C)C)(C(C)C)OC3)cc(OC)c1OC
not fulfilled
3. C=CCNC(=O)[C@H]1[C@@H]2C(=O)O[C@@H](c3ccccc3)[C@@H](c3ccccc3)N2[C@@H](c2ccc(O)cc2)[C@]12C(=O)N(C(=O)OCCOC)c1ccc(C#Cc3ccc(OC)cc3)cc12
fulfilled
4. C=C(C(=O)CC[C@@H](OC(=O)c1ccccc1-c1ccccc1C(=O)O)c1cccc(OCCO)c1)C(C)C
not fulfilled

Query molecule follows.
Qu. Test whether the molecule `[N-]=[N+]=NCc1ccccc1C[C@@]1(C(N)=O)N=C(c2ccc(OCCCO)cc2)O[C@@H]1c1ccccc1N=[N+]=[N-]` records composite z-score of 1 or higher.
Ans. fulfilled
